Sourced from ChEMBL document CHEMBL4350969

Recorded IC50 by entry
# experimentalTarget: Cysteine protease falcipain-3 (Plasmodium falciparum)
# Sequence (Q9NAW4 whole entry): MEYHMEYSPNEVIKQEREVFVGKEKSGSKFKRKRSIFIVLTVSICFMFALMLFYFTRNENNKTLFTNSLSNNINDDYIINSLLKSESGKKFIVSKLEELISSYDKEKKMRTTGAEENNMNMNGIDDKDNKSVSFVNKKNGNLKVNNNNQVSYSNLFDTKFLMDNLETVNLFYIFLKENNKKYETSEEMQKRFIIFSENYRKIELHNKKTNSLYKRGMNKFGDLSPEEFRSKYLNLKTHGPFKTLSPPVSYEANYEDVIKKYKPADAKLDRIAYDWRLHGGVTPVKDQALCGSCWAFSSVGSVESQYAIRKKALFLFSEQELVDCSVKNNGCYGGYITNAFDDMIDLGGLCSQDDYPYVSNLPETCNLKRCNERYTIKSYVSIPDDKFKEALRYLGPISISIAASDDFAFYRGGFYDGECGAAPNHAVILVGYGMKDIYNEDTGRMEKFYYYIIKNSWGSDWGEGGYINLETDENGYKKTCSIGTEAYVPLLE

structureSmilesString	experimentalTarget	endpointUnit	valueRelationSign	IC50
COC1=CC(=O)N(C(=O)/C=C/[C@H](C)NC(=O)[C@H](CC(C)C)NC(=O)[C@H](CC(C)C)NC(=O)C2CCN(C)CC2)[C@H]1Cc1c[nH]c2ccccc12.O=C(O)C(F)(F)F	Cysteine protease falcipain-3 (Plasmodium falciparum)	nM	=	79
COC1=CC(=O)N(C(=O)/C=C/[C@@H](NC(=O)[C@H](CC(C)C)NC(=O)[C@H](CC(C)C)NC(=O)[C@H](C(C)C)N(C)C)C2CCCCC2)[C@H]1Cc1c[nH]c2ccccc12.O=C(O)C(F)(F)F	Cysteine protease falcipain-3 (Plasmodium falciparum)	nM	=	484
COC1=CC(=O)N(C(=O)/C=C/[C@H](C)NC(=O)[C@H](CC(C)C)NC(=O)[C@H](CCc2ccccc2)NC(=O)[C@H](C(C)C)N(C)C)[C@H]1Cc1c[nH]c2ccccc12.O=C(O)C(F)(F)F	Cysteine protease falcipain-3 (Plasmodium falciparum)	nM	=	228
COC1=CC(=O)N(C(=O)/C=C/[C@H](C)NC(=O)[C@H](CC2CCCCC2)NC(=O)[C@H](CC2CCCCC2)NC(=O)[C@H](C(C)C)N(C)C)[C@H]1Cc1c[nH]c2ccccc12	Cysteine protease falcipain-3 (Plasmodium falciparum)	nM	=	459
COC1=CC(=O)N(C(=O)/C=C/[C@H](C)NC(=O)[C@H](CC2CCCCC2)NC(=O)[C@H](CC2CCCCC2)NC(=O)C2CCN(C)CC2)[C@H]1Cc1c[nH]c2ccccc12	Cysteine protease falcipain-3 (Plasmodium falciparum)	nM	=	547
COC1=CC(=O)N(C(=O)/C=C/[C@H](C)NC(=O)C(C)(C)NC(=O)[C@H](CC(C)C)NC(=O)[C@H](C(C)C)N(C)C)[C@H]1Cc1c[nH]c2ccccc12	Cysteine protease falcipain-3 (Plasmodium falciparum)	nM	>	50000
COC1=CC(=O)N(C(=O)/C=C/[C@H](CCc2ccccc2)NC(=O)[C@H](CC(C)C)NC(=O)[C@H](CC(C)C)NC(=O)[C@H](C(C)C)N(C)C)[C@H]1Cc1c[nH]c2ccccc12.O=C(O)C(F)(F)F	Cysteine protease falcipain-3 (Plasmodium falciparum)	nM	=	112
COC1=CC(=O)N(C(=O)/C=C/[C@H](C)NC(=O)[C@H](CC(C)C)NC(=O)[C@H](Cc2ccccc2)NC(=O)[C@H](C(C)C)N(C)C)[C@H]1Cc1c[nH]c2ccccc12	Cysteine protease falcipain-3 (Plasmodium falciparum)	nM	=	851
COC1=CC(=O)N(C(=O)/C=C/[C@H](CC2CCCCC2)NC(=O)[C@H](CC(C)C)NC(=O)[C@H](CC(C)C)NC(=O)[C@H](C(C)C)N(C)C)[C@H]1Cc1c[nH]c2ccccc12	Cysteine protease falcipain-3 (Plasmodium falciparum)	nM	=	2570
COC1=CC(=O)N(C(=O)/C=C/[C@H](C)NC(=O)[C@H](CCc2ccccc2)NC(=O)[C@H](CC2CCCCC2)NC(=O)[C@H](C(C)C)N(C)C)[C@H]1Cc1c[nH]c2ccccc12	Cysteine protease falcipain-3 (Plasmodium falciparum)	nM	=	8790
COC1=CC(=O)N(C(=O)/C=C/[C@H](C)NC(=O)[C@H](CC2CCCCC2)NC(=O)[C@H](CC(C)C)NC(=O)C2CCN(C)CC2)[C@H]1Cc1c[nH]c2ccccc12	Cysteine protease falcipain-3 (Plasmodium falciparum)	nM	=	480
COC1=CC(=O)N(C(=O)/C=C/[C@@H](NC(=O)[C@H](CC(C)C)NC(=O)[C@H](CC2CCCCC2)NC(=O)[C@H](C(C)C)N(C)C)C2CCCCC2)[C@H]1Cc1c[nH]c2ccccc12	Cysteine protease falcipain-3 (Plasmodium falciparum)	nM	=	490
